Tested on: Rattus norvegicus
Experiment: Effect on heart rate in anesthetized Wistar rat assessed as number of QRS complex at 40 mg/kg, ip after 15 mins by electrocardiography
Type: functional
Settings: route intraperitoneal
parameter: Activity

>>> observedmeasurement("COc1cc(/C=C2\\S/C(=N/c3ccccc3)N(CC(O)CNc3ccc(C(=O)NNC(=O)CO[N+](=O)[O-])cc3)C2=O)cc(OC)c1OC (centres undefined)")
21.2
>>> observedmeasurement("O=C(CO[N+](=O)[O-])NNC(=O)c1ccc(NCC(O)CN2C(=O)/C(=C/c3ccc(F)cc3)S/C2=N/c2ccccc2)cc1 (centres undefined)")
22.8
>>> observedmeasurement("O=C(CO[N+](=O)[O-])NNC(=O)c1ccc(NCC(O)CN2C(=O)/C(=C/c3ccc(O)cc3)S/C2=N/c2ccccc2)cc1 (centres undefined)")
20.4
>>> observedmeasurement("O=C(CO[N+](=O)[O-])NNC(=O)c1ccc(NCC(O)CN2C(=O)/C(=C/c3ccccc3O)S/C2=N/c2ccccc2)cc1 (centres undefined)")
21.2

====

System: Rattus norvegicus
Assay: Cardiovascular effect in anaesthetized Wistar rat assessed as mean arterial pressure at 40 mg/kg, ip after 60 mins
Assay type: functional, Artery
Conditions: route intraperitoneal
parameter: Activity (mmHg)

>>> observedmeasurement("O=C(CO[N+](=O)[O-])NNC(=O)c1ccc(NCC(O)CN2C(=O)/C(=C/c3ccccc3O)S/C2=N/c2ccccc2)cc1 (stereo not given)")
76.24
>>> observedmeasurement("O=C(CO[N+](=O)[O-])NNC(=O)c1ccc(NCC(O)CN2C(=O)/C(=C/c3cccc([N+](=O)[O-])c3)S/C2=N/c2ccccc2)cc1 (stereo not given)")
90.29
>>> observedmeasurement("O=C(CO[N+](=O)[O-])NNC(=O)c1ccc(NCC(O)CN2C(=O)/C(=C/c3ccc(F)cc3)S/C2=N/c2ccccc2)cc1 (stereo not given)")
85.23
>>> observedmeasurement("Cc1ccc(/C=C2\\S/C(=N/c3ccccc3)N(CC(O)CNc3ccc(C(=O)NNC(=O)CO[N+](=O)[O-])cc3)C2=O)cc1 (stereo not given)")
88.93
>>> observedmeasurement("O=C(CO[N+](=O)[O-])NNC(=O)c1ccc(NCC(O)CN2C(=O)/C(=C/c3ccccc3)S/C2=N/c2ccccc2)cc1 (stereo not given)")
71.29
